TARGET_UNDER_TEST: LmjIPCS (inositol phosphorylceramide synthase from L. major) (Leishmania major)
Sequence (E9AFX2 whole entry): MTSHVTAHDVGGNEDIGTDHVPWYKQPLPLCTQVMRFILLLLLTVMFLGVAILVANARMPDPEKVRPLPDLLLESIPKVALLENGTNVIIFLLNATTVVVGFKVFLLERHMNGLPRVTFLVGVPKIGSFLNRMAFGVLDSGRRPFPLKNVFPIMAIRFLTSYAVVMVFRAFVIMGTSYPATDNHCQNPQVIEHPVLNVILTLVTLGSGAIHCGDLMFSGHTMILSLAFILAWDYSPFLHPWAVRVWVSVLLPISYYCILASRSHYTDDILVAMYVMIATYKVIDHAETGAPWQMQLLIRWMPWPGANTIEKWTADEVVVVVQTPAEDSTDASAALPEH
ASSAY_NOTES: biochemical
Format: biochemical
PROTOCOL_CONDITIONS: read-out: 20mM inhibition LmjIPCS
Counter-ions that a name gives are not always drawn. Where a SMILES comes first, the peptide text is derived from it. The star is where a group is joined. Tfa = O=C(C(F)(F)F)*

| MOLECULE | UNIT_NAME | inhibition at 20000 µM |
| --- | --- | --- |
| CCc1cc(C(N)=S)ccn1 [ETHIONAMIDE] | % | -5.39 |
| C[C@@H]1O[C@@H](O[C@H]2[C@H](Oc3cc(O)c4c(c3)O[C@H](c3ccc(O)cc3)CC4=O)O[C@H](CO)[C@@H](O)[C@@H]2O)[C@H](O)[C@H](O)[C@H]1O [NARINGIN] | % | 4.67 |
| O=C(CCCCC(=O)Nc1c(I)cc(I)c(C(=O)O)c1I)Nc1c(I)cc(I)c(C(=O)O)c1I [IODIPAMIDE] | % | 7 |
| CC1(C)S[C@@H]2[C@H](NC(=O)[C@H](NC(=O)N3CCNC3=O)c3ccccc3)C(=O)N2[C@H]1C(=O)O [AZLOCILLIN] | % | -4 |
| COc1ccc(C(CN(C)C)C2(O)CCCCC2)cc1 (stereo not shown) [VENLAFAXINE] | % | 26 |
| C#C[C@]1(O)CC[C@H]2[C@@H]3CCC4=C(CCC(=O)C4)[C@H]3CC[C@@]21C [NORETHYNODREL] | % | 21 |
| CC(C)[C@H](NC(=O)[C@H](Cc1ccc(O)cc1)NC(=O)[C@@H](NC(=O)C(F)(F)F)C(C)C)C(=O)O [Tfa-VAL-TYR-VAL-OH] (Tfa-Val-Tyr-Val-OH) | % | 7.54 |
| COc1cccc(OC)c1C(=O)N[C@@H]1C(=O)N2[C@@H]1SC(C)(C)[C@@H]2C(=O)O [METHICILLIN] | % | 17 |
| CC[C@@]1(O)C(=O)OCc2c1cc1n(c2=O)Cc2cc3ccccc3nc2-1 [CAMPTOTHECIN] | % | 1.2 |
| COc1ccc(OC)c(C(O)CNC(=O)CN)c1 (stereo not shown) [MIDODRINE] | % | 13 |
| C=C(C)[C@@H]1CC=C(C(=O)O)CC1 [PERILLIC ACID (-)] | % | 12 |
| CO[C@@]1(NC(=O)CSCC#N)C(=O)N2C(C(=O)O)=C(CSc3nnnn3C)CS[C@@H]21 [CEFMETAZOLE] | % | 13 |
| CO[C@@]1(NC(=O)C(C(=O)O)c2ccc(O)cc2)C(=O)N2C(C(=O)O)=C(CSc3nnnn3C)CO[C@@H]21 (stereo partly shown) [MOXALACTAM] | % | 10 |
| NC(Cc1cc(I)c(Oc2cc(I)c(O)c(I)c2)c(I)c1)C(=O)O (stereo not shown) [THYROXINE] | % | 12 |
| NC12CC3CC(CC(C3)C1)C2 [AMANTADINE] | % | 30 |
| CC1(C)O[C@@H]2C[C@H]3[C@@H]4C[C@H](F)C5=CC(=O)CC[C@]5(C)[C@H]4[C@@H](O)C[C@]3(C)[C@]2(C(=O)CO)O1 [FLURANDRENOLIDE] | % | -15 |
